# System: DLD-1
# experiment-notes: NCI tumour cell line growth inhibition, 48 h
Calls of active or inactive are those of the source. Cut-off read from the data, not from the text of the source: active = GI50 up to about 1.1 µM and inactive = higher.
Labels: T (active), F (inactive)

compound: COc1cc2c(c(OC)c1OC)-c1ccc(SC)c(=O)cc1[C@@H](NC(=O)C(F)(F)F)CC2
qualitative-label: T

compound: COc1ccc2[nH]cc(CCNC(C)=O)c2c1
qualitative-label: F

compound: Cc1cc(NS(=O)(=O)c2ccc(NC(=O)c3ccc(Cl)c4c(Nc5ccc(S(=O)(=O)N=C(N)N)cc5)c5ccccc5nc34)cc2)no1
qualitative-label: F

compound: CP(C)C.[Ag][I]
qualitative-label: F

compound: COc1c(Cl)cc(NC(=S)C#N)cc1Cl
qualitative-label: F

compound: CCOC(=O)C1(c2ccccc2)CCCNCC1 (centres undefined)
qualitative-label: F

compound: CC(C)=CCC/C(C)=C/CC/C(C)=C/Cc1c(O)c2ccccc2oc1=O
qualitative-label: F

compound: Cc1c2n(c3ccccc13)CC1C2N(C)OC1(C)C (centres undefined)
qualitative-label: F

compound: Cc1ccc(C2=Nc3ccccc3SC(c3cccc4c3OCO4)C2)cc1 (centres undefined)
qualitative-label: F

compound: C=C[C@@]12CCCCC1C/C(=C(/O)OC)C(=O)C2 (some centres undefined)
qualitative-label: F

compound: CCOC(=O)C1=C(O)C(=O)c2ccsc2C1=O
qualitative-label: F

compound: COc1ccccc1OCc1nnc(SCC(=O)O)n1-c1ccccc1
qualitative-label: F

compound: CCC1C(=O)OCc2c1cc1n(c2=O)CCC12OCCO2 (centres undefined)
qualitative-label: F

compound: CC(=O)O[C@H]1CC[C@@]2(C)[C@H](CC[C@@H]3[C@@H]2CC[C@]2(C)[C@@H](c4ccc(=O)oc4)C[C@H]4O[C@]342)C1
qualitative-label: T

compound: COc1cccc(C2=NC(C(C)C)CO2)c1OC (centres undefined)
qualitative-label: F

compound: Cc1ccc(C(O)/C(=N/N)c2nc3ccc([N+](=O)[O-])cc3nc2O)cc1 (centres undefined)
qualitative-label: F

compound: CCc1c(CNc2ccc(C(=O)NC(CC(=O)O)C(=O)O)cc2)ccc2nc(N)nc(N)c12 (centres undefined)
qualitative-label: T

compound: CC(=O)CCn1ncc(Cl)c(Cl)c1=O
qualitative-label: F

compound: COC(=O)C(C(=O)C(=O)Nc1cccc([N+](=O)[O-])c1)c1nc2ccc([N+](=O)[O-])cc2nc1O (centres undefined)
qualitative-label: F

compound: O=S1(=O)c2ccccc2N(O)C2=NCCN21
qualitative-label: F

compound: CC(C)(C)C(=O)OC12/C(=N/O)CCCCCC1c1ccccc12 (centres undefined)
qualitative-label: F

compound: Cn1cc2ccccc2c1-c1nc(F)nc(Oc2ccc3c(c2)CC[C@@H]2C3CC[C@@]3(C)C2C[C@H](O)[C@@H]3O)n1 (some centres undefined)
qualitative-label: F

compound: COc1cccc(-c2cc(O)c3ccccc3n2)c1
qualitative-label: F

compound: O=C(NS(=O)(=O)c1ccccc1)C(Cc1ccccc1)C(Cc1ccccc1)C(=O)NS(=O)(=O)c1ccccc1 (centres undefined)
qualitative-label: F

compound: CCOC(=O)C1=C(NC(C)(C)C)OC/C1=N\NC(=O)Cc1ccccc1
qualitative-label: F

compound: FC(F)(F)c1nc(Br)[nH]c1C(F)(F)F
qualitative-label: F

compound: CC1=N/C(=C\c2cccc([N+](=O)[O-])c2)C(=O)O1
qualitative-label: F

compound: C[C@]12CCc3nonc3C1CC[C@@H]1C2CC[C@@]2(C)C1CC[C@@H]2O (some centres undefined)
qualitative-label: F

compound: CC(=O)NC1=C(C)C(=O)c2c(nc3n2CCC3OC(=O)c2ccccc2)C1=O (centres undefined)
qualitative-label: F

compound: COc1cc(C(N)=O)c(OC)c(OC)c1OC
qualitative-label: F

compound: Cc1nc2ccccc2c(=O)n1CC(=O)O
qualitative-label: F

compound: O=C(O)c1c[nH]c2c(ccc3ncccc32)c1=O
qualitative-label: F

compound: CC(C)NC(=O)OCc1nnn2c1CCC2
qualitative-label: F

compound: CCOC(=O)C(NO)C(Sc1ccccc1)c1ccc(OC)cc1 (centres undefined)
qualitative-label: F

Numbers sourced from ChEMBL document CHEMBL1201862.
